Tgt: UniProt Q15858
Sequence (Q15858 whole entry): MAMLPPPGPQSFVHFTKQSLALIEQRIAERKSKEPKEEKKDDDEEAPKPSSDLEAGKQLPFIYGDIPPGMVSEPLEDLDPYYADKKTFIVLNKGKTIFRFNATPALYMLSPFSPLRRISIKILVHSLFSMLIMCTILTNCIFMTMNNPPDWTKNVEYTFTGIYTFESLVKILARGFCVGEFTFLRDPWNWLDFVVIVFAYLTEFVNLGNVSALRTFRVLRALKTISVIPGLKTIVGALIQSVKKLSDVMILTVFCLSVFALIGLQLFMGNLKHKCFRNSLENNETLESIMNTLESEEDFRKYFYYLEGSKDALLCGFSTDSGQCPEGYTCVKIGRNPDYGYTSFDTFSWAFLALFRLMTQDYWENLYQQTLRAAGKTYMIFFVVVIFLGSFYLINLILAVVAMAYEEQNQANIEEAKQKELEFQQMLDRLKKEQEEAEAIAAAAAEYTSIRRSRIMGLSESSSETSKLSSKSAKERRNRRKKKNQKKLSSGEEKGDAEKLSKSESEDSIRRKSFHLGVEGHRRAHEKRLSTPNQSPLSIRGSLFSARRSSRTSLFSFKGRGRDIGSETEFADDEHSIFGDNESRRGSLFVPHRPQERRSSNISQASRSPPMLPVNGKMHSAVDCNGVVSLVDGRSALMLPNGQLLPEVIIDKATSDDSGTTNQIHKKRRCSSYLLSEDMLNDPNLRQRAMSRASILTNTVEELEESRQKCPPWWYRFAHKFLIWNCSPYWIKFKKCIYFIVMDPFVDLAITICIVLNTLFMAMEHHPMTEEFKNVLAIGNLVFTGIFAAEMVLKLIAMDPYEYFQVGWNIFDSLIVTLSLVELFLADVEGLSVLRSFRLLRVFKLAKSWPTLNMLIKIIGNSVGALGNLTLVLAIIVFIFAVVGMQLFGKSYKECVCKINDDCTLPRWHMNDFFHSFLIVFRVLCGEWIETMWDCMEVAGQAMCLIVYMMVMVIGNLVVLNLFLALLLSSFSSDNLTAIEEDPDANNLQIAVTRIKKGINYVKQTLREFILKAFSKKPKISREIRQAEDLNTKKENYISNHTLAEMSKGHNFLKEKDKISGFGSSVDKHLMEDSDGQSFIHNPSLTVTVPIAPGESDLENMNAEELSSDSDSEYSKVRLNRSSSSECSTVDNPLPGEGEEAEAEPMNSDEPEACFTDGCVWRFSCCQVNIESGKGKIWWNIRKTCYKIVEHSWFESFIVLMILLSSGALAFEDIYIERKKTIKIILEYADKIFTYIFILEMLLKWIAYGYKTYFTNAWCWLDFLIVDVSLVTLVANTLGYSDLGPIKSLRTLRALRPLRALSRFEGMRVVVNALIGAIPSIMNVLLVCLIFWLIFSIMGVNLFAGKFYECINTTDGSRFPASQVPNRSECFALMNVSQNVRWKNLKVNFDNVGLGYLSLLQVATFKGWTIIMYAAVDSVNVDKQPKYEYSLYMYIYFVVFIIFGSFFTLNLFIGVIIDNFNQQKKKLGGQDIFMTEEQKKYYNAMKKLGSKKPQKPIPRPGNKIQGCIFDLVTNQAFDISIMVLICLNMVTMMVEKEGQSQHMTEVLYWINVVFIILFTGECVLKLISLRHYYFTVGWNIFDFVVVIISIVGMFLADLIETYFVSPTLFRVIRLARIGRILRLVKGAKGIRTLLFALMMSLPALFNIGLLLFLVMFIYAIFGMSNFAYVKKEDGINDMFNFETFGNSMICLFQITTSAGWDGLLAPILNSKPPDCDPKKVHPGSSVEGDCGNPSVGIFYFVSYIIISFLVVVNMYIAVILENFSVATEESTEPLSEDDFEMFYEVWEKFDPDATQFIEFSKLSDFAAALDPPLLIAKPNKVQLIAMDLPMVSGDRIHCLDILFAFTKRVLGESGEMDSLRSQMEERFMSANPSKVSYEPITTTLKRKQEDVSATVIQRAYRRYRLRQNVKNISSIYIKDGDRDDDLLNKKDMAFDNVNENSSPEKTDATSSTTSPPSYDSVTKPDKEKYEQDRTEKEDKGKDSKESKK
Assay: Nav 1.7 IWQ in vitro assay (IonWorks Quattro population patch-clamp)
Assay type: cell-based
Particulars: 293 cells stably transfected with Nav 1.7; first part of table; read-out: Nav 1.7 IWQ IC50
Listed next: entries and their corresponding IC50.

See these solved cases before continuing.
* Cn1nccc1-c1cc(C(F)(F)F)ccc1-c1cccc2cc(S(=O)(=O)Nc3ccncn3)ccc12 [Example 74] | 0.08 µM
* COc1cc(C(F)(F)F)ccc1-c1cccc2cc(S(=O)(=O)Nc3nccs3)ccc12 [Example 41] | 0.29 µM
* O=S(=O)(Nc1ncns1)c1ccc2c(-c3ccc(C(F)(F)F)cc3Br)nccc2c1 [Example 50] | 0.03 µM
* O=S(=O)(Nc1nccs1)c1ccc2c(-c3ccc(C(F)(F)F)cc3C3=CCNCC3)nccc2c1 [Example 70] | 0.015 µM
* CN1CC(n2nccc2-c2cc(C(F)(F)F)ccc2-c2cccc3cc(S(=O)(=O)Nc4nccs4)ccc23)C1 [Example 82] | 0.07 µM
* Cn1nccc1-c1cc(Cl)ccc1-c1cccc2cc(S(=O)(=O)Nc3ncns3)ccc12 [Example 25] | 0.05 µM

Query O=S(=O)(Nc1ncns1)c1ccc2c(-c3ccc(C(F)(F)F)cc3Br)cccc2c1 [Example 23] yields IC50 of 0.11 µM

Query COc1cc(C(F)(F)F)ccc1-c1cccc2cc(S(=O)(=O)Nc3ncns3)ccc12 [Example 12] yields IC50 of 0.01 µM

Query O=S(=O)(Nc1ncns1)c1ccc2c(-c3ccc(Cl)cc3C(F)(F)F)cccc2c1 [Example 39] yields IC50 of 1.54 µM

Query O=S(=O)(Nc1ncns1)c1ccc2c(-c3ccc(Cl)cc3Cl)cccc2c1 [Example 40] yields IC50 of 1.97 µM

Query O=S(=O)(Nc1nccs1)c1ccc2c(-c3ccc(C(F)(F)F)cc3-c3ccnn3C3CNC3)cccc2c1 [Example 81] yields IC50 of 0.04 µM

Query O=S(=O)(Nc1nccs1)c1ccc2c(-c3ccc(C(F)(F)F)cc3Cl)cccc2c1 [Example 79] yields IC50 of 0.9 µM

Query CCOc1cc(C(F)(F)F)ccc1-c1cccc2cc(S(=O)(=O)Nc3ncns3)ccc12 [Example 10] yields IC50 of 0.05 µM

Query O=S(=O)(Nc1ncns1)c1ccc2c(-c3ccccc3)cccc2c1 [Example 9] yields IC50 of 0.46 µM

Query O=S(=O)(Nc1ccncn1)c1ccc2c(-c3ccc(C(F)(F)F)cc3C3=CCNCC3)nccc2c1 [Example 69, 2,2,2-TRIFLUOROACETATE] yields IC50 of 0.06 µM

Query O=S(=O)(Nc1ccncn1)c1ccc2c(-c3ccc(C(F)(F)F)cc3-c3ccncc3)nccc2c1 [Example 65] yields IC50 of 0.32 µM

The origin of these recorded values is patent US9012443B2.
